- Experimental details: chemical genetic growth profiling, strain panel (AID 1159580);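 note: tested at 20 µM; growth read once vehicle control cultures reached saturation at 30 °C; 1 = growth at the plate median or of vehicle wells; lower values mean less growth of the strain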
- Condition: S. cerevisiae deletion strains, growth OD, locus YHR082C, strain KSP1, active compounds read low
Screen size: about 5,500 compounds; about 2,000 (36%) were called active. Another 18% or so got no clear call; they are omitted. This is one part of the list.
Attribute measured: normalized growth
// return just the number, without any unit appended

Field: example entries. Status: answers known.
INSERT INTO results (compound, attribute_measured, recorded_value) VALUES
  ('CCOC(=O)C1C(c2c(F)cccc2Cl)C(C(=O)OCC)C(O)(C(F)(F)F)NC1(O)C(F)(F)F (stereo not given)', 'normalized growth', 0.994),
  ('CC(C)(C)c1ccc(C(=N)SC(C(=O)C(F)(F)F)c2ccccc2)cc1 (stereo not given)', 'normalized growth', 0.766),
  ('CCOC(=O)c1ccc2nc(N=CNO)sc2c1', 'normalized growth', 0.986),
  ('O=C(Nc1cccc(C(F)(F)F)c1)c1cncc(C#Cc2ccccc2)c1', 'normalized growth', 0.905),
  ('O=[N+]([O-])c1ccc(ON=C2CCCCC2)c([N+](=O)[O-])c1', 'normalized growth', 0.966);

Consider the compound C/C(Cc1nnn(-c2cc(C)on2)n1)=N/OC(=O)Nc1ccc(Cl)cc1 . State its measured normalized growth.
1.05

Report normalized growth for O=C(ON=C1CCCCC1)c1ccc([N+](=O)[O-])cc1
0.901

Return normalized growth for the following compound: N#C/C(=N/Nc1ccccc1)C(=O)c1ccccc1OC(F)(F)F
0.9

Give the measured normalized growth for N#C/C(=N/Nc1ccc(F)cc1)S(=O)(=O)c1ccc(Cl)cc1
0.994

Read off the recorded normalized growth for CCCN(CCC)C(=S)NC(=O)c1cccc([N+](=O)[O-])c1
1.02

Given Oc1c(Cl)cc(Cl)cc1C=Nc1nc(-c2ccc3ccccc3c2)cs1 , respond with its normalized growth.
0.814

Consider the compound Cc1cccc(NC(=S)N/N=C\c2ccc(F)cc2)c1 . State its measured normalized growth.
0.825
